# TARGET DESC: human Yes1 enzyme (Homo sapiens, UniProt P07947)
# Construct: made in house
# Sequence (P07947 whole entry): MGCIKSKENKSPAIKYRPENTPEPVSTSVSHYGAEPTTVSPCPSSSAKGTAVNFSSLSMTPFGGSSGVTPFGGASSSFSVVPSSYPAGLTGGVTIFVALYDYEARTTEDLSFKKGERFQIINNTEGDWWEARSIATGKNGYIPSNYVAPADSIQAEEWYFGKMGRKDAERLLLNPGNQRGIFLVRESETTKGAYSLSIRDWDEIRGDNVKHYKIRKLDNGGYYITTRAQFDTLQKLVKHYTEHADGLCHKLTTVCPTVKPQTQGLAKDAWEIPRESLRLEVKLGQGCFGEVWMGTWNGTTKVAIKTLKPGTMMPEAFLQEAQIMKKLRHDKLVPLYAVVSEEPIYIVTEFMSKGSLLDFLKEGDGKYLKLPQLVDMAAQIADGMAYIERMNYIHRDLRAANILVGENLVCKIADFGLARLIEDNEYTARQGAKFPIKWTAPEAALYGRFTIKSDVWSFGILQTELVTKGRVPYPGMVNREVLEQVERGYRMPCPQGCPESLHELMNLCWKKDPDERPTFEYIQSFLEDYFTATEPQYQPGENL
# EXPERIMENTAL PROTOCOL: Yes1 enzyme inhibitory activity (time-resolved fluorometry, biotinylated peptide phosphorylation)
# Format: biochemical
# STUDY CONDITIONS: biotinylated peptide phosphorylation, read-out: YES_IC50
Reported pIC50 values for the following compounds.
Entry type: numeric. Quantity: pIC50, the -log10 of concentration in molar units.

Consider the reported pIC50 for these compounds:
Cc1cc(Oc2ccccc2Cl)ncc1-n1ncc(C(=O)c2cc3cc(Cl)c(NS(C)(=O)=O)cc3[nH]2)c1N = 8.59
Cc1cc(Oc2ccccc2F)ccc1-n1ncc(C(=O)c2cc3cc(OC(F)F)c(C4CCN(S(=O)(=O)C5CC5)CC4)cc3[nH]2)c1N = 8.02
Cc1cc(Oc2ccccc2F)ccc1-n1ncc(C(=O)c2cc3cc(OCC(F)F)c(C4CCN(S(C)(=O)=O)CC4)cc3[nH]2)c1N = 8.30
Cc1cc(Oc2ccccc2F)cc(F)c1-n1ncc(C(=O)c2cc3cc(OC(F)F)c(N4CCN(S(C)(=O)=O)CC4)cc3[nH]2)c1N = 8.00
Cc1cc2cc(C(=O)c3cnn(-c4cnc(Oc5c(F)cccc5F)cc4C)c3N)[nH]c2cc1N1CCOCC1 = 8.39

Note to self: pIC50 of "COc1cc2[nH]c(C(=O)c3cnn(-c4ccc(Oc5ccccc5F)cc4C)c3N)cc2cc1NS(C)(=O)=O" with human Yes1 enzyme (Homo sapiens, UniProt P07947) was 9.35

---

# TARGET DESC: human Yes1 enzyme (Homo sapiens, UniProt P07947)
# Construct: made in house
# EXPERIMENTAL PROTOCOL: Yes1 enzyme inhibitory activity (time-resolved fluorometry, biotinylated peptide phosphorylation)
# Format: biochemical
# STUDY CONDITIONS: biotinylated peptide phosphorylation, read-out: YES_IC50
RECORDED ENDPOINT: IC50
Answer format reminder: number followed by unit.

Known results for compounds:
COc1cc2cc(C(=O)c3cnn(-c4cnc(Oc5ccccc5F)cc4C)c3N)[nH]c2cc1NS(=O)(=O)CC(=O)N1CCOCC1 = 0.59 nM
Cc1cc(Oc2ccccc2F)ncc1-n1ncc(C(=O)c2cc3cc(OCC(F)F)c(NS(=O)(=O)c4cccnc4)cc3[nH]2)c1N = 1.5 nM
Cc1cc(Oc2cccc(F)c2F)cc(F)c1-n1ncc(C(=O)c2cc3cc(F)c(N)cc3[nH]2)c1N = 4.3 nM
Cc1cc(Oc2ccccc2F)ccc1-n1ncc(C(=O)c2cc3cc(F)c(NS(=O)(=O)CC(=O)NC(C)C)cc3[nH]2)c1N = 0.77 nM
Cc1cc(Oc2c(F)cccc2F)ncc1-n1ncc(C(=O)c2cc3cc(OCC(F)F)c(NS(=O)(=O)CCCF)cc3[nH]2)c1N = 0.64 nM
Cc1cc2cc(C(=O)c3cnn(-c4c(C)cc(Oc5ccccc5F)cc4F)c3N)[nH]c2cc1NS(=O)(=O)N1CCOCC1 = 2.4 nM

IC50 in this record for "Cc1cc(Oc2ccccc2F)ccc1-n1ncc(C(=O)c2cc3cc(OC(F)F)c(-n4c(C)cc(=O)[nH]c4=O)cc3[nH]2)c1N" : 1.5 nM

Noted for "Cc1cc2cc(C(=O)c3cnn(-c4ccc(Oc5ccccc5F)cc4C)c3N)[nH]c2cc1NS(=O)(=O)c1cncc(F)c1" : its IC50 reads 3.1 nM

Note to self: IC50 recorded for "Cc1cc(Oc2c(F)cccc2Cl)ncc1-n1ncc(C(=O)c2cc3cc(F)c(NS(=O)(=O)CCCF)cc3[nH]2)c1N" was 2.1 nM

Lab book: IC50 of "COc1ccnc(S(=O)(=O)Nc2cc3[nH]c(C(=O)c4cnn(-c5cnc(Oc6c(F)cccc6F)cc5C)c4N)cc3cc2F)c1" noted as 3.7 nM

IC50 measured on Cc1cc(Oc2ccccc2F)ccc1-n1ncc(C(=O)c2cc3cc(F)c(NS(=O)(=O)C4(CC(O)CO)CC4)cc3[nH]2)c1N (stereo not shown) = 1.1 nM

Notebook: "Cc1cc(Oc2ccccc2F)ccc1-n1ncc(C(=O)c2cc3cc(F)c(NS(=O)(=O)c4cccc(C#N)n4)cc3[nH]2)c1N" , IC50 read as 3 nM

Reported IC50 for "Cc1cc(Oc2ccccc2F)ccc1-n1ncc(C(=O)c2cc3cc(F)c(NS(=O)(=O)c4c(F)cc(F)cc4F)cc3[nH]2)c1N" was 5.6 nM
